// provenance: patent US20260151494A1

Target: human serum albumin (human) (UniProt P02768)
Sequence (P02768 25-609 limits assumed): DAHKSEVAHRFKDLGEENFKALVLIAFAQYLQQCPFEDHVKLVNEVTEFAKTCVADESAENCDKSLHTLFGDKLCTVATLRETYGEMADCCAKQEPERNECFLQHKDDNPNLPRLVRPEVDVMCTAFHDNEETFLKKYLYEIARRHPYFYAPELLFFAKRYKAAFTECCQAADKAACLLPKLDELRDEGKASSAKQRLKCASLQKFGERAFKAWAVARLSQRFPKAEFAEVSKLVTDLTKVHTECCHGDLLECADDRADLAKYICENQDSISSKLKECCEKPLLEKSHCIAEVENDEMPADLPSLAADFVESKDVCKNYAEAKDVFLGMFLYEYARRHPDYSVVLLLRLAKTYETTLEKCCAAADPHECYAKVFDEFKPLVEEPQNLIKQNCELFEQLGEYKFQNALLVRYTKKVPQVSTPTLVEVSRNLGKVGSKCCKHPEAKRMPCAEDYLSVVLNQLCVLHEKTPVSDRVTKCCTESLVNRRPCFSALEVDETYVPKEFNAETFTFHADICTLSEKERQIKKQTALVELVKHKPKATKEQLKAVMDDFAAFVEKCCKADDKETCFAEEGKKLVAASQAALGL
Experiment: primary ELISA screen, HSA negative control
Measurement Label: RLU (RLU)
Answer with a number only, understood to be in RLU.

Some binders with known RLU results, for comparison:
CD71-binding FN3 domain of SEQ ID NO: 345 (designed binder, not shown: small tags and cut ends) MSLPAPKNLVVSRVTEDSAHLSWTAPDAAFDSFEIGYFENDYFGEAIVLTVPGSERSYDLTGLKPGTEYVVFIGGVKGGKWSAPLSAIFTT :: 23600
CD71-binding FN3 domain of SEQ ID NO: 336 (designed binder, not shown: small tags and cut ends) MSLPAPKNLVVSRVTEDSARLSWTAPDAAFDSFNIMYHEHYDNGEAIVLTVPGSERSYDLTGLKPGTEYSVVINGVKGGPHSAPLSAIFTT :: 16800
CD71-binding FN3 domain of SEQ ID NO: 334 (designed binder, not shown: small tags and cut ends) MSLPAPKNLVVSRVTEDSARLSWTAPDAAFDSFEIAYQELSLWGEAIVLTVPGSERSYDLTGLKPGTEYWVQIGGVKGGIWSSPLVASFTT :: 14400

The reported value for CD71-binding FN3 domain of SEQ ID NO: 338 (designed binder, not shown: small tags and cut ends) MSLPAPKNLVVSRVTEDSARLSWTAPDAAFDSFEIGYFENLYLGEAIVLTVPGSERSYDLTGLKPGTEYCVYICGVKGGRDSMPLSAIFTT in terms of RLU is 40200

Note to self: RLU recorded for CD71-binding FN3 domain of SEQ ID NO: 340 (designed binder, not shown: small tags and cut ends) MSLPAPKNLVVSRVTEDSSRLSWTAPDAAFDSFEIGYFENLYLGEAIVLTVPGSERSYDLTGLKPGTEYWVQIGGVKGGNWSAPLSAIFTT was 28300

Per the record, CD71-binding FN3 domain of SEQ ID NO: 341 (designed binder, not shown: small tags and cut ends) MSLPAPKNLVVSRVTEDSARLSWTAPDAAFDSFFIGYLEPQPPGEAIELYVPGSERSYDLTGLKPGTEYNVTIQGVKGGFPSLPLVAIFTT has RLU of 58000

// field: RLU; key: CD71-binding FN3 domain of SEQ ID NO: 337 (designed binder, not shown: small tags and cut ends) MSLPAPKNLVVSRVTEDSARLSWTAPDAAFDSFFIGYLEPQPPGEAIHLYVPGSERSYDLTGLKPGTEYNVTIQGVKGGFPSIPLIASFTT ; value = 17200

Recorded result, CD71-binding FN3 domain of SEQ ID NO: 339 (designed binder, not shown: small tags and cut ends) MSLPAPKNLVVSRVTEDSARLSWTAPDAAFDSFEIGYWEMSYYGEAIVLTVPGSERSYDLTGLKPGTEYGVSIGGVKGGRWSLPLSAIFTT , RLU: 7050

# RLU of CD71-binding FN3 domain of SEQ ID NO: 335 (designed binder, not shown: small tags and cut ends) MSLPAPKNLVVSRVTEDSARLSWTAPDAAFDSFFIGYLEPQPPGEAIDLYVPGSERSYDLTGLKPGTEYNVTIQGVKGGFPSLPLVATFTT = 57300
